Below is a list of entries, each paired with its recorded Mean % editing value.
# System: rat TTR gene
# ASSAY NOTES: In vivo editing of TTR in rat liver after LNP delivery (NGS, % editing)
# Parameters: species or system rat (Sprague-Dawley)
# CONDITION CONTEXT: Experiment 4, 0.1 mpk, LNP with PEG2K-DMG
Report the value in % with no unit label.

The following molecules have reported results that may help.
CCCCC/C=C\C/C=C\CCCCCCCC(=O)OCC(CCCCCCCCC(=O)OC(CCCCCCCC)CCCCCCCC)COC(=O)OCCCN(CC)CC (stereo not shown) [Compound 9]    9.6
CCCCC/C=C\C/C=C\CCCCCCCC(=O)OCC(CCCCC(=O)OC(CCCC)CCCC)COC(=O)OCCCN(CC)CC (stereo not shown) [Compound 14]    16.8
CCCCC/C=C\C/C=C\CCCCCCCC(=O)OCC(CCCCCCCCC(=O)OC(CCCCCCCC)CCCCCCCC)COC(=O)NCCN(CC)CC (stereo not shown) [Compound 10]    35.3
CCCCC/C=C\C/C=C\CCCCCCCC(=O)OCC(CCCCCCCCC(=O)OC(CCCCCCCC)CCCCCCCC)COC(=O)OCCCN(C)CC (stereo not shown) [Compound 11]    14.0
CCCCC/C=C\C/C=C\CCCCCCCC(=O)OCC(COC(=O)CCC(OCCCCCCCC)OCCCCCCCC)COC(=O)OCCCN(CC)CC (stereo not shown) [Compound 53]    41.8
CCCCC/C=C\C/C=C\CCCCCCCC(=O)OCC(CCCCC(=O)OC(CCCC)CCCC)COC(=O)NCCN(CC)CC (stereo not shown) [Compound 12]    11.6

Below: the item to evaluate.
Input: Recall the recorded Mean % editing for CCCCC/C=C\C/C=C\CCCCCCCC(=O)OCC(CCCCC(=O)OC(CCCC)CCCC)COC(=O)OCCCN(C)CC (stereo not shown) [Compound 13] with rat TTR gene and state it.
Output: 20.9
